Provide the reported Compound recovery of each item.
Assay: Drug excretion in F344/DuCrlCrlj rat urine/feces treated with [14C]rivoglitazone at 1 mg/kg, po administered via gavage measured during 0 to 48 hrs by radio-HPLC analysis
Type: ADME, organism-based
Design: dose 1 mg/kg, dosed compound name [14C]Rivoglitazone, route oral
Settings: in vivo
Note: unit % is implicit; provide only the numeric part.

Record request: Compound recovery value, item CSC(Cc1ccc(OCc2nc3ccc(O[C@@H]4O[C@H](C(=O)O)[C@@H](O)[C@H](O)[C@H]4O)cc3n2C)cc1)C(N)=O (some centres not stated) 0.7

Field request: Compound recovery | item: CSC(Cc1ccc(OCc2nc3ccc(O)cc3n2C)cc1)C(N)=O (configuration not stated) 8.7

Returns the measured Compound recovery for the input compound. Input: Cn1c(COc2ccc(CC3SC(=O)NC3=O)cc2)nc2ccc(O)cc21 (configuration not stated) 25.6

So what does the record say about Compound recovery for COc1ccc2nc(COc3ccc(CC(C(N)=O)S(C)(=O)=O)cc3)n(C)c2c1 (configuration not stated) ? 1

Reported Compound recovery, compound COc1ccc2nc(COc3ccc(CC(C(N)=O)[S+](C)[O-])cc3)n(C)c2c1 (configuration not stated) : ____ 3.9

Looking for the measured Compound recovery of Cn1c(COc2ccc(CC3SC(=O)NC3=O)cc2)nc2ccc(OS(=O)(=O)O)cc21 (configuration not stated) , can you help? 10

Can you look up the measured Compound recovery of COc1ccc2nc(COc3ccc(CC(SC)C(=O)O)cc3)n(C)c2c1 (configuration not stated) for me? 3

====

Assay: Total clearance in F344/DuCrlCrlj rat at 0.1 mg/kg, iv administered via tail vein by LC-MS/MS analysis
Type: ADME, organism-based
Parameters: dose 0.1 mg/kg, dosed compound name [14C]Rivoglitazone, route intravenous
Details: in vivo
metric: clearance (mL/min/kg)
Number only, in mL/min/kg; omit the unit.

Entry COc1ccc2nc(COc3ccc(CC4SC(=O)NC4=O)cc3)n(C)c2c1.Cl (racemic) : reported clearance = ? 0.329

====

Experiment: AUC (0 to t) in monkey at 0.493 mg/kg, iv administered via tail vein by LC-MS/MS analysis
Type: ADME, organism-based, Macaca mulatta
Parameters: dose 0.493 mg/kg, dosed compound name [14C]Rivoglitazone, route intravenous
Conditions: rhesus monkey, plasma
metric: AUC(0-t) (ng·h/mL)
Provide the reading as a plain figure in ng·h/mL.

May I ask what AUC(0-t) has been recorded for COc1ccc2nc(COc3ccc(CC4SC(=O)NC4=O)cc3)n(C)c2c1.Cl (racemic) ? 21700

====

Assay: AUC (0 to infinity) in monkey at 0.493 mg/kg, po administered via gavage by LC-MS/MS analysis
Format: ADME, organism-based, Macaca mulatta
Set-up: time infinity, dose 0.493 mg/kg, dosed compound name [14C]Rivoglitazone, route oral
Conditions: rhesus monkey, plasma
metric: AUC(0-inf)

Requested field: AUC(0-inf). Item: COc1ccc2nc(COc3ccc(CC4SC(=O)NC4=O)cc3)n(C)c2c1.Cl (racemic) 17700 ng·h/mL

====

Assay: Tmax in monkey at 0.493 mg/kg, po administered via gavage by LC-MS/MS analysis
Type: ADME, organism-based, Macaca mulatta
Set-up: dose 0.493 mg/kg, dosed compound name [14C]Rivoglitazone, route oral
Conditions: rhesus monkey, in vivo
metric: Tmax (h)
Please respond with the number in h and leave the unit unwritten.

What measured Tmax goes with COc1ccc2nc(COc3ccc(CC4SC(=O)NC4=O)cc3)n(C)c2c1.Cl (racemic) ? 4.25

====

Test: Drug excretion in F344/DuCrlCrlj rat feces assessed as unchanged compound at 1 mg/kg, po administered via gavage measured during 0 to 48 hrs by radio-HPLC analysis
Format: ADME, organism-based
Parameters: dose 1 mg/kg, dosed compound name [14C]Rivoglitazone, route oral
Details: read-out: Compound recovery
metric: dose excreted (%)
Give just the number in %; leave the unit off.

Requested field: dose excreted. Item: COc1ccc2nc(COc3ccc(CC4SC(=O)NC4=O)cc3)n(C)c2c1.Cl (racemic) 23.7

====

Experiment: Terminal elimination half life in monkey at 0.493 mg/kg, po administered via gavage by LC-MS/MS analysis
Assay type: ADME, organism-based, Macaca mulatta
Set-up: dose 0.493 mg/kg, dosed compound name [14C]Rivoglitazone, route oral
Details: rhesus monkey, in vivo, read-out: beta t1/2 (converted)
metric: half-life (h)
State the answer as a number, implicitly in h.

If you can, please state the reported half-life value of COc1ccc2nc(COc3ccc(CC4SC(=O)NC4=O)cc3)n(C)c2c1.Cl (racemic) . 7.56

====

Test: AUC (0 to infinity) in monkey at 0.493 mg/kg, iv administered via tail vein by LC-MS/MS analysis
Format: ADME, organism-based, Macaca mulatta
Design: time infinity, dose 0.493 mg/kg, dosed compound name [14C]Rivoglitazone, route intravenous
Conditions: rhesus monkey, plasma
metric: AUC(0-inf) (ng·h/mL)
Output spec: scalar in ng·h/mL, unitless text.

Fill in: AUC(0-inf) of COc1ccc2nc(COc3ccc(CC4SC(=O)NC4=O)cc3)n(C)c2c1.Cl (racemic) is ___ 23500

====

Assay: Drug excretion in monkey feces treated with [14C]rivoglitazone at 1 mg/kg, po administered via gavage measured during 0 to 72 hrs by radio-HPLC analysis
Type: ADME, organism-based, Macaca mulatta
Parameters: dose 1 mg/kg, dosed compound name [14C]Rivoglitazone, route oral
Details: rhesus monkey, in vivo
metric: Compound recovery (%)
Your answer is read as %, so omit the unit and give the number.

Find the recorded Compound recovery belonging to Cn1c(COc2ccc(CC3SC(=O)NC3=O)cc2)nc2ccc(O)cc21 (stereo not given) and report it. 18

Any idea what its Compound recovery is? The compound is COc1ccc2nc(COc3ccc(CC(SC)C(=O)O)cc3)n(C)c2c1 (stereo not given) 0.8

Entry COc1ccc2nc(COc3ccc(CC4(O)SC(=O)NC4=O)cc3)n(C)c2c1 (stereo not given) has what Compound recovery? 1.7

Which value of Compound recovery has been reported for CSC(Cc1ccc(OCc2nc3ccc(O)cc3n2C)cc1)C(N)=O (stereo not given) in the records? 2.9

Bench note: what Compound recovery did COc1ccc2nc(COc3ccc(CC(SC(=O)N[C@@H]4O[C@H](C(=O)O)[C@@H](O)[C@H](O)[C@H]4O)C(=O)O)cc3)n(C)c2c1 (stereo not given in full) show? 6.6

====

Assay: AUC (0 to infinity) in monkey at 0.986 mg/kg, iv administered via tail vein by LC-MS/MS analysis
Format: ADME, organism-based, Macaca mulatta
Design: time infinity, dose 0.986 mg/kg, dosed compound name [14C]Rivoglitazone, route intravenous
Settings: rhesus monkey, plasma
metric: AUC(0-inf) (µg·h/mL)
Kindly provide the numeric value in µg·h/mL only, without the unit symbol.

Please look up its AUC(0-inf): COc1ccc2nc(COc3ccc(CC4SC(=O)NC4=O)cc3)n(C)c2c1.Cl (racemic) 57.2

====

Experiment: Total clearance in monkey at 0.0986 mg/kg, iv administered via tail vein by LC-MS/MS analysis
Format: ADME, organism-based, Macaca mulatta
Parameters: dose 0.0986 mg/kg, dosed compound name [14C]Rivoglitazone, route intravenous
Conditions: rhesus monkey, in vivo
metric: clearance (L/h/kg)
Form entry: value (L/h/kg) — number only.

Which clearance is reported for this compound? COc1ccc2nc(COc3ccc(CC4SC(=O)NC4=O)cc3)n(C)c2c1.Cl (racemic) 0.0187

====

Assay: Tmax in F344/DuCrlCrlj rat at 0.5 mg/kg, po administered via gavage by LC-MS/MS analysis
Type: ADME, organism-based
Design: dose 0.5 mg/kg, dosed compound name [14C]Rivoglitazone, route oral
Settings: in vivo
metric: Tmax (h)
Write the answer as a number in h, unit excluded.

Fill in: Tmax of COc1ccc2nc(COc3ccc(CC4SC(=O)NC4=O)cc3)n(C)c2c1.Cl (racemic) is ___ 1.13

====

Test: AUC (0 to t) in F344/DuCrlCrlj rat at 1 mg/kg, po administered via gavage by LC-MS/MS analysis
Format: ADME, organism-based
Set-up: dose 1 mg/kg, dosed compound name [14C]Rivoglitazone, route oral
Settings: plasma
metric: AUC(0-t)
Answer with the figure and its unit, nothing else.

Record request: AUC(0-t) value, item COc1ccc2nc(COc3ccc(CC4SC(=O)NC4=O)cc3)n(C)c2c1.Cl (racemic) 48500 ng·h/mL

====

Tested on: Rhesus monkey
Assay: Drug level in monkey plasma treated with [14C]rivoglitazone assessed as ratio of molar basis AUC (0 to t) at 1 mg/kg, po administered via gavage by LC-MS/MS analysis
Format: ADME, organism-based, Macaca mulatta
Set-up: dose 1 mg/kg, dosed compound name [14C]Rivoglitazone, route oral
Conditions: in vivo
metric: AUCmet/AUCp

Short answer please: AUCmet/AUCp, Rhesus monkey, entry O=C1NC(=O)C(Cc2ccc(OCc3nc4ccc(O)cc4[nH]3)cc2)S1 (configuration not stated) 0.28%

Query the reported AUCmet/AUCp for Rhesus monkey; item: COc1ccc2nc(COc3ccc(CC4(O)SC(=O)NC4=O)cc3)n(C)c2c1 (configuration not stated) 0.02%

Give recorded AUCmet/AUCp with Rhesus monkey for the following molecule: COc1ccc2nc(COc3ccc(CC(SC(=O)N[C@@H]4O[C@H](C(=O)O)[C@@H](O)[C@H](O)[C@H]4O)C(=O)O)cc3)n(C)c2c1 (some centres not stated) 1.53%

So what AUCmet/AUCp did COc1ccc2nc(COc3ccc(CC4SC(=O)NC4=O)cc3)[nH]c2c1 (configuration not stated) get with Rhesus monkey? 7.01%

Rhesus monkey / AUCmet/AUCp / COc1ccc2nc(COc3ccc(CC(SC)C(N)=O)cc3)n(C)c2c1 (configuration not stated) : value? 0.05%

# value lookup — system Rhesus monkey, readout AUCmet/AUCp, item COc1ccc2nc(COc3ccc(CC(SSCC(N)C(=O)O)C(=O)O)cc3)n(C)c2c1 (configuration not stated) 0.03%

Requested read-out AUCmet/AUCp, target or system Rhesus monkey, entry COc1ccc2nc(COc3ccc(CC(SC)C(=O)O)cc3)n(C)c2c1 (configuration not stated) 0.25%
